PIM-2 (Homo sapiens, UniProt Q9P1W9) data, read-out IC50
Sequence (Q9P1W9 whole entry): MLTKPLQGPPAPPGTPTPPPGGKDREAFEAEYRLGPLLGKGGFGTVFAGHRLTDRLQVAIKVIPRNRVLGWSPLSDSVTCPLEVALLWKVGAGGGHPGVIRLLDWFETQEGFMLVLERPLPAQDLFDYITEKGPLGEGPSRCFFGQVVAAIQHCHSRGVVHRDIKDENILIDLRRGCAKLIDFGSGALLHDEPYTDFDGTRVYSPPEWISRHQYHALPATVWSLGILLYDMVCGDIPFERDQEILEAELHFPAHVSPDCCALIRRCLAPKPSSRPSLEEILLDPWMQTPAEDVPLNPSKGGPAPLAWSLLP
Report field: quantity (unit follows the number).

>  <MOLECULE>
O=c1c(O)c(-c2ccc(O)c(O)c2)oc2cc(O)cc(O)c12 [Querecitin, quercetin, reference compound]

>  <EXPERIMENTAL_READOUT>
IC50

>  <RECORDED_RESULT>
640 nM

$$$$

Please find the next molecule below.
Challenge: # query: IC50 | item "COc1ccc(/C=C/C(/C=C2/C(=O)Nc3cc(Br)ccc32)=N\O)cc1" | system: PIM-2 (Homo sapiens, UniProt Q9P1W9)
Response given: 220 nM

====

- TARGET_OR_SYSTEM: PIM-3 (Homo sapiens, UniProt Q86V86)
EXPERIMENTAL_READOUT: IC50
Report field: quantity (unit follows the number).

>  <COMPOUND>
O=c1c(O)c(-c2ccc(O)c(O)c2)oc2cc(O)cc(O)c12 [Querecitin, quercetin, reference compound]

>  <IC50>
830 nM

$$$$

Please find the next compound below.
Challenge: Entry COc1ccc(/C=C/C(/C=C2/C(=O)Nc3cc(Br)ccc32)=N\O)cc1 [Compound 6] : reported IC50 = ?
Response given: 360 nM

====

- TARGET_OR_SYSTEM: UniProt:P11309
- Sequence (P11309 whole entry): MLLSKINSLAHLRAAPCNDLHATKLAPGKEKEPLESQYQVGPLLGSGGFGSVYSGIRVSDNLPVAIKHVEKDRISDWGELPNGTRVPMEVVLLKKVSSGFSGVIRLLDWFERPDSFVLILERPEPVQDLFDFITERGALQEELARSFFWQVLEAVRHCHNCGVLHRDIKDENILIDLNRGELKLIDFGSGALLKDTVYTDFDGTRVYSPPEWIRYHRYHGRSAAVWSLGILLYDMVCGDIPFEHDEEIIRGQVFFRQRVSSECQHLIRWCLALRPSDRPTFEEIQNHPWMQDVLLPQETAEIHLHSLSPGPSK
EXPERIMENTAL_READOUT: pIC50
Please note pIC50 is a logarithmic value: minus log10 of concentration in mol/L. Answer with that number alone.

Challenge: Entry "COc1ccc(/C=C/C(/C=C2/C(=O)Nc3cc(Br)ccc32)=N\O)cc1" : reported pIC50 = ?
Response given: 6.33

// data source = paper PMC9049778
